# Test system: Human immunodeficiency virus 1
# assay-notes: Antiviral activity against HIV1 NL4.3-Ren infected in human MT2 cells assessed as inhibition of viral growth at 10 uM measured 48 hrs post infection by luminometry
# Format: functional
# settings: Human immunodeficiency virus 1, NL4.3-Ren, MT2, 48 h
quantity-measured: inhibition at 10 µM

1) C=C(C)[C@@H]1CC[C@]2(C)CC[C@]3(C)[C@H](C[C@@H](O)[C@@H]4[C@@]5(C)C=CC(=O)C(C)(C)[C@@H]5CC[C@]43C)[C@@H]12
> 50%
2) C=C(C)[C@@H]1CC[C@]2(COC(=O)c3ccccc3)CC[C@]3(C)[C@H](CC[C@@H]4[C@@]5(C)CC[C@H](O)C(C)(C)[C@@H]5CC[C@]43C)[C@@H]12
< 50%

Now for another entry.
## Input Looking for the measured inhibition at 10 µM of "C=C(COC(C)=O)[C@@H]1CC[C@]2(C)CC[C@]3(C)[C@H](CC[C@@H]4[C@@]5(C)CCC(=O)C(C)(C)[C@@H]5CC[C@]43C)[C@@H]12" , can you help?
## Output > 50%

All values here come from ChEMBL document CHEMBL3580560.
